System: Staphylococcus aureus
METHOD_NOTES: Antibacterial activity against Staphylococcus aureus ATCC 29213 incubated for 24 hrs by microtiter plate method
Type: functional
MEASUREMENT_PARAMETERS: Staphylococcus aureus, ATCC 29213, read-out: MIC
Square brackets hold non-standard residues; d marks the D form. Peptide text beside a SMILES is read from it. Dip = N[C@H](C(=O)O)C(c1ccccc1)c1ccccc1; 2Nal = N[C@@H](Cc1ccc2ccccc2c1)C(=O)O
REPORTED_ENDPOINT: MIC (µg/mL)
Dear colleague, please return just the value in µg/mL, with no unit written.

According to the records, this compound O=C(O)c1cn(C2CC2)c2cc(N3CCNCC3)c(F)cc2c1=O [CIPROFLOXACIN] displays MIC of 1.5

According to the records, this compound N=C(N)NCCC[C@H](NC(=O)[C@H](CCCNC(=N)N)NC(=O)[C@@H](N)CCCNC(=N)N)C(=O)N[C@H](C(=O)N[C@H](C(=O)N[C@H](C(=O)O)C(c1ccccc1)c1ccccc1)C(c1ccccc1)c1ccccc1)C(c1ccccc1)c1ccccc1 (H-RRR[Dip][Dip][Dip]-OH) displays MIC of 6.2

According to the records, this compound N=C(N)NCCC[C@@H]1NC(=O)[C@H](CCCNC(=N)N)NC(=O)[C@H](CCCNC(=N)N)NC(=O)[C@H](Cc2ccc3ccccc3c2)NC(=O)[C@H](Cc2ccc3ccccc3c2)NC(=O)[C@H](CCCNC(=N)N)NC1=O (cyclo([2Nal][2Nal]RRRR)) displays MIC of 6.2

According to the records, this compound NCCCC[C@@H]1NC(=O)[C@H](CCCCN)NC(=O)[C@H](CCCCN)NC(=O)[C@H](C(c2ccccc2)c2ccccc2)NC(=O)[C@H](C(c2ccccc2)c2ccccc2)NC(=O)[C@H](C(c2ccccc2)c2ccccc2)NC(=O)[C@H](CCCCN)NC1=O (cyclo([Dip][Dip][Dip]KKKK)) displays MIC of 12.5

Origin of measurements: ChEMBL document CHEMBL5154681
